Values were extracted from ChEMBL document CHEMBL1165992.

# test.description: in vitro
# run.conditions: human, liver microsomes
# Description: Intrinsic clearance in human liver microsomes assessed per mg of microsomal protein at 0.2 to 1 uM after 30 mins by HPLC analysis
value.type: microsomal CLint at 0.5 h, 1 µM (µL/min/mg)
Kindly provide the numeric value in µL/min/mg only, without the unit symbol.

Q. Dear colleague, I am looking for the recorded microsomal CLint at 0.5 h, 1 µM of the following molecule: O=C(c1ccc(F)cc1)C1CCN(C(=O)c2ccccc2F)CC1
A. 46.5

Q. Item O=C(c1ccc(F)cc1)C1CCN(C(=O)c2ccccc2)CC1 has what recorded microsomal CLint at 0.5 h, 1 µM?
A. 23

Q. # input molecule: Nc1ccccc1C(=O)N1CCC(C(=O)c2ccc(F)cc2)CC1 ; wanted: its microsomal CLint at 0.5 h, 1 µM
A. 15.6

Q. I am curious: what microsomal CLint at 0.5 h, 1 µM value has been reported for O=C(c1ccc(F)cc1)C1CCN(C(=O)c2ccc(Br)cc2)CC1 ?
A. 22.7

Q. # get_value(readout='microsomal CLint at 0.5 h, 1 µM', item= CN(C)c1cccc(C(=O)N2CCC(C(=O)c3ccc(F)cc3)CC2)c1 )
A. 53.5

Q. microsomal CLint at 0.5 h, 1 µM for O=C(c1ccc(F)cc1)C1CCN(C(=O)c2ccc(F)cc2)CC1 ?
A. 17.1

Q. Which microsomal CLint at 0.5 h, 1 µM is listed for CCN(C(=O)NCc1ccc(S(C)(=O)=O)cc1)C1CCN(CCC(c2ccc(F)cc2)C2CCN(Cc3cccnc3)CC2)CC1 (stereo unspecified) ?
A. 5

Q. Sample O=C(c1ccc(F)cc1)C1CCN(C(=O)c2ccc(Cl)cc2Cl)CC1 — what was its microsomal CLint at 0.5 h, 1 µM?
A. 41.2

Q. Data request, read-out microsomal CLint at 0.5 h, 1 µM, for CCN(C(=O)NCc1ccccc1F)C1CCN(CCC(c2ccccc2)c2ccccc2)CC1
A. 74

Q. Which microsomal CLint at 0.5 h, 1 µM value is on record for O=C(c1ccc(F)cc1)C1CCN(C(=O)c2ccc(N3CCOCC3)cc2)CC1 ?
A. 15.2

Q. Looking for the measured microsomal CLint at 0.5 h, 1 µM of Cc1ncc(-c2ccnc(Nc3ccccc3)n2)n1C(C)C , can you help?
A. 63.5

Q. # query: microsomal CLint at 0.5 h, 1 µM of entry O=C(c1ccc(F)cc1)C1CCN(C(=O)c2cccc([N+](=O)[O-])c2)CC1
A. 5.3

Q. May I ask what microsomal CLint at 0.5 h, 1 µM has been recorded for COc1cccc(C(=O)N2CCC(C(=O)c3ccc(F)cc3)CC2)c1OC ?
A. 14.9

Q. Requested field: microsomal CLint at 0.5 h, 1 µM. Item: O=C(c1ccc(F)cc1)C1CCN(C(=O)c2ccc(C(F)(F)F)cc2)CC1
A. 15.5

Q. // microsomal CLint at 0.5 h, 1 µM lookup, key: O=C(c1ccc(F)cc1)C1CCN(C(=O)c2cccc(OC(F)(F)F)c2)CC1
A. 31.8

Q. // lookup microsomal CLint at 0.5 h, 1 µM for N#Cc1ccccc1C(=O)N1CCC(C(=O)c2ccc(F)cc2)CC1
A. 28.4

Q. What measured microsomal CLint at 0.5 h, 1 µM goes with O=C(c1ccc(F)cc1)C1CCN(C(=O)c2ccc(Cl)cc2)CC1 ?
A. 18.6

Q. What microsomal CLint at 0.5 h, 1 µM value was documented for this molecule, CS(=O)(=O)c1cccc(C(=O)N2CCC(C(=O)c3ccc(F)cc3)CC2)c1 ?
A. 11.4

Q. I would be grateful if you could share the reported microsomal CLint at 0.5 h, 1 µM for CS(=O)(=O)Nc1cccc(C(=O)N2CCC(C(=O)c3ccc(F)cc3)CC2)c1 .
A. 9.23

Q. For the molecule shown here, O=C(c1ccc(F)cc1)C1CCN(C(=O)c2ccccc2Cl)CC1 , give the reported microsomal CLint at 0.5 h, 1 µM.
A. 32.6

Q. Could you share which microsomal CLint at 0.5 h, 1 µM value was measured for O=C(c1ccc(F)cc1)C1CCN(C(=O)c2cccc(C(F)(F)F)c2)CC1 ?
A. 13.7

----------
Task for the reader: assign each of the following molecules its reported microsomal CLint at 0.5 h, 1 µM.
# test.description: in vitro
# run.conditions: human, liver microsomes
Report the figure in µL/min/mg without appending any unit label.

Q. Would you kindly share the measured microsomal CLint at 0.5 h, 1 µM for Cc1ccccc1C(=O)N1CCC(C(=O)c2ccc(F)cc2)CC1 ?
A. 23.5

Q. Which microsomal CLint at 0.5 h, 1 µM value is on record for O=C(c1ccc(F)cc1)C1CCN(C(=O)c2ccc(F)c(F)c2)CC1 ?
A. 12.5

Q. Please give the measured microsomal CLint at 0.5 h, 1 µM for this molecule: NS(=O)(=O)c1ccc(C(=O)N2CCC(C(=O)c3ccc(F)cc3)CC2)cc1
A. 12.3

----------
# test.description: in vitro
# run.conditions: human, microsomes
value.type: microsomal CLint at 0.5 h, 1 µM (µL/min/mg)
Numeric only. Scale: µL/min/mg

Q. # query: microsomal CLint at 0.5 h, 1 µM of entry CCN(C(=O)NCc1ccc(F)cc1)C1CCN(CCC(c2ccccc2)c2ccccc2)CC1
A. 105

----------
value.type: IC50 (µM)
The figure you give is taken to be in µM; do not add the unit.

Q. Kindly state the measured IC50 obtained for O=C(c1ccc(F)cc1)C1CCN(C(=O)c2ccc(F)cc2)CC1 with 11-beta-hydroxysteroid dehydrogenase 1 (Homo sapiens, UniProt P28845).
Sequence (P28845 whole entry): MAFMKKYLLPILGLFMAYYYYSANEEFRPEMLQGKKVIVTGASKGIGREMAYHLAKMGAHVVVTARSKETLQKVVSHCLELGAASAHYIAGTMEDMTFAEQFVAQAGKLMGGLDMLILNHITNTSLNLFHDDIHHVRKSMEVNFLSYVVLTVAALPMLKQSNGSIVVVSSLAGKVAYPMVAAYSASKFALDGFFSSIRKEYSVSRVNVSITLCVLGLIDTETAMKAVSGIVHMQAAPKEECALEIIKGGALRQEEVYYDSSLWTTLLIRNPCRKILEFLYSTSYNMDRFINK
A. 21.8

Q. Item O=C(c1ccc(F)cc1)C1CCN(C(=O)c2ccc(Cl)cc2)CC1 with 11-beta-hydroxysteroid dehydrogenase 1 (Homo sapiens, UniProt P28845) - IC50?
A. 6.02

Q. # get_value(readout= IC50, system= 11-beta-hydroxysteroid dehydrogenase 1 (Homo sapiens, UniProt P28845)) for COc1ccc(C(=O)N2CCC(C(=O)c3ccc(F)cc3)CC2)cc1
A. 15.8

Q. Find the measured IC50: item Cc1ccc(C(=O)N2CCC(C(=O)c3ccc(F)cc3)CC2)cc1 , target or system 11-beta-hydroxysteroid dehydrogenase 1 (Homo sapiens, UniProt P28845).
A. 3.41

----------
# test.description: in vitro
# run.conditions: human, liver microsomes
Field: microsomal CLint at 0.5 h, 1 µM. Provide a value for each of the compounds that follow.
Please respond with the number in µL/min/mg and leave the unit unwritten.

Q. Given O=C(c1ccc(F)cc1)C1CCN(C(=O)c2ccccc2OC(F)(F)F)CC1 , state its recorded microsomal CLint at 0.5 h, 1 µM.
A. 16.9

Q. What value of measured microsomal CLint at 0.5 h, 1 µM is listed for CCN(C(=O)NCc1ccc(S(C)(=O)=O)cc1)C1CCN(CCC(c2ccc(F)cc2)C2CCN(Cc3ccc4ccccc4n3)CC2)CC1 (stereo not given) ?
A. 3

Q. May I ask what microsomal CLint at 0.5 h, 1 µM has been recorded for O=C(c1ccc(F)cc1)C1CCN(C(=O)c2ccc(Cl)c(C(F)(F)F)c2)CC1 ?
A. 11.5

Q. Given the entry N#Cc1cccc(C(=O)N2CCC(C(=O)c3ccc(F)cc3)CC2)c1 , report its measured microsomal CLint at 0.5 h, 1 µM.
A. 14.5

Q. Give its microsomal CLint at 0.5 h, 1 µM value. Item: COc1cccc(C(=O)N2CCC(C(=O)c3ccc(F)cc3)CC2)c1
A. 12.9

Q. Item under review: COc1ccc(C(=O)N2CCC(C(=O)c3ccc(F)cc3)CC2)cc1 . Reported microsomal CLint at 0.5 h, 1 µM?
A. 22.6

Q. Can you share its microsomal CLint at 0.5 h, 1 µM? I mean this compound: CCN(C(=O)NCc1cccc(F)c1)C1CCN(CCC(c2ccccc2)c2ccccc2)CC1
A. 86

Q. What does the data say about its microsomal CLint at 0.5 h, 1 µM? Entry: N#Cc1ccc(C(=O)N2CCC(C(=O)c3ccc(F)cc3)CC2)cc1
A. 11.7

Q. Given the entry O=C(c1ccc(F)cc1)C1CCN(C(=O)c2cc(F)cc(F)c2)CC1 , report its measured microsomal CLint at 0.5 h, 1 µM.
A. 25.3

Q. Fill in: microsomal CLint at 0.5 h, 1 µM of O=C(c1ccc(F)cc1)C1CCN(C(=O)c2ccc(F)cc2Cl)CC1 is ___
A. 18

----------
# test.description: in vitro
# run.conditions: human, liver microsomes
Each entry falls in a class defined on microsomal CLint at 0.5 h, 1 µM; the bands are bottom bin = under 10 µL/min/mg, middle bin = from 10 µL/min/mg up to 20 µL/min/mg, top bin = 20 µL/min/mg and over

Q. Which bin should I file O=C(c1ccc(F)cc1)C1CCN(C(=O)c2cccc(Cl)c2)CC1 under?
A. top bin

Q. Into which category would you place CCN(C(=O)NCc1cc(F)cc(F)c1)C1CCN(CCC(c2ccccc2)c2ccccc2)CC1 ?
A. bottom bin

Q. Form field 'band' for Cc1ccc(C(=O)N2CCC(C(=O)c3ccc(F)cc3)CC2)cc1
A. top bin

Q. Category of CCN(C(=O)NCc1ccc(S(C)(=O)=O)cc1)C1CCN(CCC(c2ccccc2)C2CCN(Cc3ccc4ccccc4n3)CC2)CC1 (stereo not given) :
A. top bin

Q. # classify by microsomal CLint at 0.5 h, 1 µM band: COc1ccccc1C(=O)N1CCC(C(=O)c2ccc(F)cc2)CC1
A. middle bin

Q. Which class holds COc1ccc(C(=O)N2CCC(C(=O)c3ccc(F)cc3)CC2)c(OC)c1 ?
A. middle bin

Q. Kindly identify the class of O=C(c1ccc(F)cc1)C1CCN(C(=O)c2ccc(Cl)c(Cl)c2)CC1 .
A. middle bin

Q. Which category fits this record: O=C(c1ccc(F)cc1)C1CCN(C(=O)c2cccc(F)c2F)CC1
A. middle bin

Q. In plain terms, what class is CCN(C(=O)NCc1ccc(S(C)(=O)=O)cc1)C1CCN(CCC(c2ccccc2)C2CCN(Cc3cccnc3)CC2)CC1 (stereo not given) ?
A. top bin

Q. Categorize the following entry: O=C(c1ccc(F)cc1)C1CCN(C(=O)c2ccc(OC(F)(F)F)cc2)CC1
A. middle bin

Q. Into which category would you place NS(=O)(=O)c1cccc(C(=O)N2CCC(C(=O)c3ccc(F)cc3)CC2)c1 ?
A. middle bin

Q. Which band does Cc1cccc(C(=O)N2CCC(C(=O)c3ccc(F)cc3)CC2)c1 fall in?
A. top bin

Q. Each molecule maps to one class by microsomal CLint at 0.5 h, 1 µM. Which class for CS(=O)(=O)c1ccc(C(=O)N2CCC(C(=O)c3ccc(F)cc3)CC2)cc1 ?
A. middle bin

Q. Please report the category associated with O=C(c1ccc(F)cc1)C1CCN(C(=O)c2ccc(-c3ccccc3)cc2)CC1 , nothing else.
A. bottom bin

Q. Returns: class label. Input: CCN(C(=O)NCc1c(F)cccc1F)C1CCN(CCC(c2ccccc2)c2ccccc2)CC1
A. bottom bin

Q. Returns: class label. Input: CCN(C(=O)NCc1cc(F)ccc1F)C1CCN(CCC(c2ccccc2)c2ccccc2)CC1
A. bottom bin

Q. Which bin should I file O=C(c1ccc(F)cc1)C1CCN(C(=O)c2ccc([N+](=O)[O-])cc2)CC1 under?
A. bottom bin

Q. Class (by measured microsomal CLint at 0.5 h, 1 µM) for O=C(c1ccc(F)cc1)C1CCN(C(=O)c2cccc(F)c2)CC1
A. top bin

Q. For this molecule, which bin applies? O=C(c1ccc(F)cc1)C1CCN(C(=O)c2cccc(Br)c2)CC1
A. middle bin
